Ref: patent US12139520B2

- TARGET_ENTITY: T1, hAMY3R (human, UniProt P30988)
- T1 sequence 1: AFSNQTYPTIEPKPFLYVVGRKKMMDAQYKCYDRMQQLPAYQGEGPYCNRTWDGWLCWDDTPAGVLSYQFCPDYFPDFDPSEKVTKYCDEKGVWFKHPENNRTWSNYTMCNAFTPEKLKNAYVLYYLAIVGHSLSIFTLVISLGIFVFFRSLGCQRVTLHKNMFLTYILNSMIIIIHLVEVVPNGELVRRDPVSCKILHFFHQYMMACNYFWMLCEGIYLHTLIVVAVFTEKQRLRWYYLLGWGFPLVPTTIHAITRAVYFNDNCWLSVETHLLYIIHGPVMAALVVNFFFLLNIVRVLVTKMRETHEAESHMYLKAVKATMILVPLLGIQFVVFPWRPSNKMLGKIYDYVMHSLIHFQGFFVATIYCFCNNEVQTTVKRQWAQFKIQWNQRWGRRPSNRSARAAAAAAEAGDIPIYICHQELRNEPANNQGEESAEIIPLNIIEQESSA
- T1 sequence 2: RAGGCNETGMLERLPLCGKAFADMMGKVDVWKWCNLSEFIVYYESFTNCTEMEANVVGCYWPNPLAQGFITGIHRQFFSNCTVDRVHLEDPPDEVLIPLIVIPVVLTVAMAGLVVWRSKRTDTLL
- MEASUREMENT_NOTES: cell-based or functional assay
Numbered stars: 1 amine (or outer) side, 2 acyl side, 3 side chain; on linkers, the order of the positions; unused ones are H or OH. Bridge positions count the residues as written; N and C are the ends. Square brackets hold non-standard residues; d marks the D form. Ends that are not written are not given here. * marks the point of attachment. C20 diacid = O=C(O)CCCCCCCCCCCCCCCCCCC(=O)*; γGlu = O=C(O)[C@H](CCC(=O)[*:2])N[*:1]; Hyp = O=C(O)[C@@H]1C[C@@H](O)CN1; Cit = NC(=O)NCCC[C@H](N)C(=O)O
Is hAMY3R EC50 (cAMP) at least 0.01 nM? Then T. If not, F.

1. KCNTATCTVQ[Cit]LAHQIYQFTDKDKDNAAPPTNVGSNG[Hyp]-NH2 (disulfide 2-7 (inferred); ends not checked) [SEQ ID NO: 251]	F
2. KCNTATCTVQRLAHQIYQFTDKDKDNVAPRTKVGSNGY [SEQ ID NO: 34]	F
3. KCNTATCTVQRLAHQIYQFTDKDKDNVAPPTNVGSNG[Hyp]-NH2 (disulfide 2-7 (inferred); ends not checked) [SEQ ID NO: 75]	T
4. GCRFGTCTVQRLAHQIYQFTDKDKDNVAPRTKIGPQG[Hyp]-NH2 (disulfide 2-7 (inferred); ends not checked) [SEQ ID NO: 111]	T
5. {C20 diacid-γGlu}-GCRFGTCTVQRLANFLYQFTDKDKDNVAPRTNVGPQGY-NH2 (disulfide 2-7 (inferred); ends not checked) [SEQ ID NO: 386]	T
6. {C20 diacid-γGlu}-KCNTATCTVQRLAHQIYQFTNKDKDNVAPPTNVGSNG[Hyp]-NH2 (disulfide 2-7 (inferred); not fully specified; ends not checked) [SEQ ID NO: 82]	T
7. GCRTGTCTVQRLAHQIYQFTDKDKDNVAPRSKIGPNG[Hyp]-NH2 (disulfide 2-7 (inferred); ends not checked) [SEQ ID NO: 157]	T
8. GCRTGTCTVQRLAHQIYQFTDKDKDNVAPRSKVGPNG[Hyp]-NH2 (disulfide 2-7 (inferred); ends not checked) [SEQ ID NO: 139]	T

Prompt: Would you say KCNAATCTVQRLAEQIYQFTDKDKDNVAPPTNVGSNG[Hyp]-NH2 (disulfide 2-7 (inferred); ends not checked) [SEQ ID NO: 101] shows hAMY3R EC50 (cAMP) at minimum 0.01 nM?
Response: T

Prompt: Please check the record GCRFGTCTVQ[Cit]LAHQIYQFTDKDKDNVAPRTKVSPQG[Hyp]-NH2 (disulfide 2-7 (inferred); ends not checked) [SEQ ID NO: 287] and state if its hAMY3R EC50 (cAMP) is at or above 0.01 nM.
Response: T

Prompt: hey, is hAMY3R EC50 (cAMP) for this one >= 0.01 nM? GCRMGTCTVQRLAHQIYQFTDKDKDNVAPSSKISPQT[Hyp]-NH2 (disulfide 2-7 (inferred); ends not checked) [SEQ ID NO: 222]
Response: T

Prompt: Tell me whether hAMY3R EC50 (cAMP) is at least 0.01 nM here: KCNTATCTVQWLAHQIYQFTDKDKDNAAPPTNVGSNG[Hyp]-NH2 (disulfide 2-7 (inferred); ends not checked) [SEQ ID NO: 315]
Response: T

Prompt: Quick check: does {C20 diacid-γGlu}-KCNTATCTVQRLAHQIAQFTDKDKDNVAPPTNVGSNS[Hyp]-NH2 (disulfide 2-7 (inferred); not fully specified; ends not checked) [SEQ ID NO: 69] have hAMY3R EC50 (cAMP) greater than or equal to 0.01 nM?
Response: T

Prompt: Check this binder for hAMY3R EC50 (cAMP) at or above 0.01 nM: KCNTATCTVQWLAHAIYQFTDKDKDNVAPPTNVGSNG[Hyp]-NH2 (disulfide 2-7 (inferred); ends not checked) [SEQ ID NO: 308]
Response: T
